Provenance of the data: PubChem BioAssay (NCI)

We begin with a simple list: items and their reported TGI.
tested on: OVCAR-8 ovarian; experiment: NCI tumour cell line growth inhibition, 48 h

COc1ccc(C2C3=C(N=C4SC(C(C)=O)=C(C)N42)c2ccccc2CC3)cc1 (centres undefined) ... > 100 µM
Cc1cc(C)c2c(c1)CC1(Cc3cc(C)c(C)cc3C1=O)C2=O (centres undefined) ... > 100 µM
COc1cc2c(cc1OC)-c1ncc3c(OC)ccc(OC)c3c1C2 ... 38.2 µM

Below: the item to evaluate.
The compound identified as `C/C(CC(=O)Nc1cccc(Cl)c1C)=N\NC(N)=S` registered its TGI at > 100 µM
